# Tested on: HCV genotype 1b replicon
# Assay name: HCV replicon assay, cell ELISA with antibody to replicon-encoded NS3/4A (genotype 1b replicon)
# Assay type: cell-based, hepatitis C virus
# Condition info: Hepatitis C virus, 96 h, read-out: 1b IC50(nM), HCV genotype 1b replicon; 96 hours incubation; NS3/4A cell ELISA
Binning rule for recorded IC50: zone 1: < 4 nM; zone 2: ≥ 4 nM and < 10 nM; zone 3: ≥ 10 nM

- CNC(=O)c1c(-c2ccc(F)cc2)oc2cc(N(CC(C)(CO)CF)S(C)(=O)=O)c(-c3ccc(OC)c(-c4nc5c(F)cccc5o4)c3)cc12 (stereo not drawn) [Example 813]: zone 3
- CNC(=O)c1c(-c2ccc(F)cc2)oc2cc(N(CC(F)F)S(C)(=O)=O)c(-c3ccc(OC)c(-c4nc5cccc(F)c5o4)c3)cc12 [Example 878]: zone 3
- CNC(=O)c1c(-c2ccc(F)cc2)oc2cc(N(C)S(C)(=O)=O)c(-c3ccc(OC)c(-c4nc5c(F)cccc5o4)c3)cc12 [Example 411]: zone 2
- CNC(=O)c1c(-c2ccc(F)cc2)oc2cc(N(C)S(C)(=O)=O)c(-c3ccc4c(c3)-c3[nH]c5ccccc5c3C(c3cccnc3)O4)cc12 (stereo not drawn) [Example 589]: zone 1
- CN(c1cc2oc(-c3ccc(F)cc3)c(C(=O)Nc3cccnc3)c2cc1-c1cccc(-c2cc3ccccc3[nH]2)c1)S(C)(=O)=O [Example 851]: zone 3

Would you mind sorting CNC(=O)c1c(-c2ccc(F)cc2)oc2cc(N(CCC(C)(C)F)S(C)(=O)=O)c(-c3cccc(-c4nc5ncccc5o4)c3)cc12 [Example 797] into the appropriate category? zone 1

Would you mind sorting CNC(=O)c1c(-c2ccc(F)cc2)oc2cc(N(CCC(C)(C)C#N)S(C)(=O)=O)c(-c3ccc(OC)c(-c4nc5c(F)cc(F)cc5o4)c3)cc12 [Example 735] into the appropriate category? zone 3

Would you mind sorting CNC(=O)c1c(-c2ccc(F)cc2)oc2cc(N(CCC(C)(C)O)S(C)(=O)=O)c(-c3cccc(-c4nc5ncccc5o4)c3)cc12 [Example 859] into the appropriate category? zone 1

Would you mind sorting CNC(=O)c1c(-c2ccc(F)cc2)oc2cc(N(CC3(C)COC3)S(C)(=O)=O)c(-c3ccc(OC)c(-c4nc5c(F)cc(F)cc5o4)c3)cc12 [Example 725] into the appropriate category? zone 3

Would you mind sorting CNC(=O)c1c(-c2ccc(F)cc2)oc2cc(N(C)S(C)(=O)=O)c(-c3ccc(CC#N)c(-c4nc5c(F)cccc5o4)c3)cc12 [Example 429] into the appropriate category? zone 2

Would you mind sorting CNC(=O)c1c(-c2ccc(F)cc2)oc2cc(N(C3CCOC3)S(C)(=O)=O)c(-c3ccc(OC)c(-c4nc5c(F)cccc5o4)c3)cc12 (stereo not drawn) [Example 726] into the appropriate category? zone 2

====

# Tested on: HCV genotype 1b replicon
# Assay name: HCV replicon assay, cell ELISA with antibody to replicon-encoded NS3/4A (genotype 1b replicon)
# Format: cell-based, hepatitis C virus
# Condition info: Hepatitis C virus, 96 h, read-out: 1b IC50(nM), HCV genotype 1b replicon; 96 hours incubation; NS3/4A cell ELISA
Readout kind: IC50 (nM)
Answers are plain numbers, in nM.

Some solved cases for reference:
* CNC(=O)c1c(-c2ccc(F)cc2)oc2cc(N(C3COC3)S(C)(=O)=O)c(-c3ccc(OC)c(-c4nc5c(F)cc(F)cc5o4)c3)cc12 | 4.94
* CNC(=O)c1c(-c2ccc(F)cc2)oc2cc(N(C(CO)CO)S(C)(=O)=O)c(-c3ccc(OC)c(-c4nc5c(F)cccc5o4)c3)cc12 | 5.41
* CNC(=O)c1c(-c2ccc(F)cc2)oc2cc(N(C)S(C)(=O)=O)c(-c3ccc(N4CCOC4=O)c(-c4nc5c(F)cccc5o4)c3)cc12 | 2.48

Go through the items and report each one's IC50.
1. CNC(=O)c1c(-c2ccc(F)cc2)oc2cc(N(C(C)CF)S(C)(=O)=O)c(-c3cccc(-c4nc5ncccc5o4)c3)cc12 (stereo not drawn)
2. CNC(=O)c1c(-c2ccc(F)cc2)oc2cc(N(CC(C)(C)O)S(C)(=O)=O)c(-c3ccc(OC)c(-c4nc5c(F)cccc5o4)c3)cc12
3. CNC(=O)c1c(-c2ccc(F)cc2)oc2cc(N(C[C@@H](C)NC(=O)[C@@H](NC(=O)OC)C(C)C)S(C)(=O)=O)c(-c3cccc(-c4nc5ncccc5o4)c3)cc12
4. CNC(=O)c1c(-c2ccc(F)cc2)oc2cc(N(CC3CC3)S(C)(=O)=O)c(-c3ccc(OC)c(-c4nc5c(F)cc(F)cc5o4)c3)cc12

1. 2.1
2. 8.28
3. 82
4. 15.6

Go through the items and report each one's IC50.
1. CNC(=O)c1c(-c2ccc(F)cc2)oc2cc(N(C(CF)CF)S(C)(=O)=O)c(-c3ccc(OC)c(-c4nc5c(F)cccc5o4)c3)cc12
2. CNC(=O)c1c(-c2ccc(F)cc2)oc2cc(N(CC(C)(C)O)S(C)(=O)=O)c(-c3ccc(OC)c(-c4nc5cccc(F)c5o4)c3)cc12
3. CNC(=O)c1c(-c2ccc(F)cc2)oc2cc(N(C)S(C)(=O)=O)c(-c3cccc(-n4nc5ccccc5c4-c4cccnc4)c3)cc12

[46.7, 24.8, 65.9]

Go through the items and report each one's IC50.
1. CNC(=O)c1c(-c2ccc(F)cc2)oc2cc(N(C)S(C)(=O)=O)c(-c3ccc(OC)c(-c4nc5cc(C(N)=O)ccc5o4)c3)cc12
2. CNC(=O)c1c(-c2ccc(F)cc2)oc2cc(N(C)S(C)(=O)=O)c(-c3cc(C(=O)O)cc(-c4nc5c(F)cccc5o4)c3)cc12

[4.61, 55.7]

====

Answer each item with its documented IC50.
# Tested on: HCV genotype 1b replicon
# Assay name: HCV replicon assay, cell ELISA with antibody to replicon-encoded NS3/4A (genotype 1b replicon)
# Assay type: cell-based, hepatitis C virus
# Condition info: Hepatitis C virus, 96 h, read-out: 1b IC50(nM), HCV genotype 1b replicon; 96 hours incubation; NS3/4A cell ELISA
Give bare numbers, in nM.

Some solved cases for reference:
• CNC(=O)c1c(-c2ccc(F)cc2)oc2cc(N(C3CN(C(=O)[C@@H](NC(=O)OC)C(C)C)C3)S(C)(=O)=O)c(-c3ccc(OC)c(-c4nc5c(F)cccc5o4)c3)cc12 [Example 834] = 11.5
• CNC(=O)c1c(-c2ccc(F)cc2)oc2cc(N(CCC(F)(F)F)S(C)(=O)=O)c(-c3cccc(-c4nc5ncccc5o4)c3)cc12 [Example 872] = 4.7

Write IC50 of CNC(=O)c1c(-c2ccc(F)cc2)oc2cc(N(C)S(C)(=O)=O)c(-c3cccc(-c4nc5c(o4)CCCC5(F)F)c3)cc12 [Example 515] ; system used: HCV genotype 1b replicon 3.99

====

Answer each item with its documented IC50.
# System: HCV genotype 1b replicon
# Assay name: HCV replicon assay, cell ELISA with antibody to replicon-encoded NS3/4A (genotype 1b replicon)
# Format: cell-based, hepatitis C virus
# Condition info: Hepatitis C virus, 96 h, read-out: 1b IC50(nM), HCV genotype 1b replicon; 96 hours incubation; NS3/4A cell ELISA
Numbers only, in nM.

Some solved cases for reference:
* CNC(=O)c1c(-c2ccc(F)cc2)oc2cc(N(C)S(C)(=O)=O)c(-c3ccc(N4CCNC4=O)c(-c4nc5c(F)cccc5o4)c3)cc12 | 3.31
* CNC(=O)c1c(-c2ccc(F)cc2)oc2cc(N(CCC(C)(C)F)S(C)(=O)=O)c(-c3ccc(OC)c(-c4nc5c(F)cccc5o4)c3)cc12 | 14
* CNC(=O)c1c(-c2ccc(F)cc2)oc2cc(N(CCC(O)CO)S(C)(=O)=O)c(-c3ccc(OC)c(-c4nc5c(F)cc(F)cc5o4)c3)cc12 (stereo not drawn) | 3.55
* CNC(=O)c1c(-c2ccc(F)cc2)oc2cc(N(CC(F)F)S(C)(=O)=O)c(-c3ccc(OC)c(-c4nc5ncccc5o4)c3)cc12 | 5.1
* CNC(=O)c1c(-c2ccc(F)cc2)oc2cc(N(C)S(C)(=O)=O)c(-c3cccc(-c4cc5c(F)cc(F)cc5s4)c3)cc12 | 12
* CNC(=O)c1c(-c2ccc(F)cc2)oc2cc(N(C)S(C)(=O)=O)c(-c3ccc(OC)c(-c4nc5c(C(=O)Nc6ccccc6)cccc5o4)c3)cc12 | 29.8
* CNC(=O)c1c(-c2ccc(F)cc2)oc2cc(N(Cc3cccnc3)S(C)(=O)=O)c(-c3ccc(OC)c(-c4nc5c(F)cccc5o4)c3)cc12 | 4.93
* CNC(=O)c1c(-c2ccc(F)cc2)oc2cc(N(CC3CCS(=O)(=O)C3)S(C)(=O)=O)c(-c3ccc(OC)c(-c4nc5c(F)cccc5o4)c3)cc12 (stereo not drawn) | 2.84

Go through the items and report each one's IC50.
1. CNC(=O)c1c(-c2ccc(F)cc2)oc2cc(N(CCC(C)(C)C#N)S(C)(=O)=O)c(-c3ccc(OC)c(-c4nc5c(F)cccc5o4)c3)cc12
2. CNC(=O)c1c(-c2ccc(F)cc2)oc2cc(N(C)S(C)(=O)=O)c(-c3ccc(F)c(-c4cc5cccnc5[nH]4)c3)cc12
3. CNC(=O)c1c(-c2ccc(F)cc2)oc2cc(N(C)S(C)(=O)=O)c(-c3ccc(OC)c(-c4cc5ncccc5s4)c3)cc12
4. CNC(=O)c1c(-c2ccc(F)cc2)oc2cc(N(CC(F)CCF)S(C)(=O)=O)c(-c3ccc(OC)c(-c4nc5c(F)cccc5o4)c3)cc12 (stereo not drawn)

1: 7.78; 2: 1.2; 3: 7.53; 4: 13.4
